biological target: Caspase-9 (Homo sapiens (Human)); test: Caspase-9 Inhibitor Drug Screening Kit, fluorometric (AFC liberation); format: biochemical; conditions: 30-minute incubation at 37° C.; approximations of the average values; read-out: Caspase enzymatic activity, IC50 (uM) Caspase 9
Sequence (P55211 whole entry): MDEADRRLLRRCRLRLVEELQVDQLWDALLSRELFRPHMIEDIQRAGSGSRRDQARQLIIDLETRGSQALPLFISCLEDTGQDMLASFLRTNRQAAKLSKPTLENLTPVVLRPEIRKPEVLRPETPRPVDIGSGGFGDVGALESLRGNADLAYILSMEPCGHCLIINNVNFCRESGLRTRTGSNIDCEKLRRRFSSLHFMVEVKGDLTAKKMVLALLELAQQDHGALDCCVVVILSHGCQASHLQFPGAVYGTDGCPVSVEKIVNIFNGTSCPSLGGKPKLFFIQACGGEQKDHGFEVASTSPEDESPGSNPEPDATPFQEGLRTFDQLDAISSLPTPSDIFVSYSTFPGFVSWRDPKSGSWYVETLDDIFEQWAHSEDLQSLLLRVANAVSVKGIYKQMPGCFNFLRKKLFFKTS
So I've got a bunch of compounds here, and I need their IC50 values.

# input compound: `CC(C)[C@H](NC(=O)[C@H](Cc1ccccn1)NC(=O)[C@H](CC(=O)O)NC(=O)OCc1ccccc1)C(=O)N[C@H](/C=C/S(=O)(=O)c1ccccc1)CC(=O)O` ; wanted: its IC50
> 3.33 µM

Consider the compound shown here: `CC(C)[C@H](NC(=O)[C@H](Cc1ccc(O)cc1)NC(=O)OCc1ccccc1)C(=O)N[C@@H](C)C(=O)N[C@H](/C=C/S(=O)(=O)c1ccccc1)CC(=O)O` What is its recorded IC50?
> 10 µM

Look up IC50 for this compound: `COC(=O)C[C@@H](/C=C/S(C)(=O)=O)NC(=O)[C@@H](NC(=O)[C@@H](NC(=O)[C@H](CC(=O)OC)NC(=O)OCc1ccccc1)C1Cc2ccccc2C1)C(C)C`
> 3 µM

###

target: Caspase-5 (Homo sapiens (Human)); test: Caspase-5 Inhibitor Drug Screening Kit, fluorometric (AFC liberation); assay type: biochemical; conditions: 30-minute incubation at 37° C.; approximations of the average values; read-out: Caspase enzymatic activity, IC50 (uM) Caspase 5
Sequence (P51878 137-434): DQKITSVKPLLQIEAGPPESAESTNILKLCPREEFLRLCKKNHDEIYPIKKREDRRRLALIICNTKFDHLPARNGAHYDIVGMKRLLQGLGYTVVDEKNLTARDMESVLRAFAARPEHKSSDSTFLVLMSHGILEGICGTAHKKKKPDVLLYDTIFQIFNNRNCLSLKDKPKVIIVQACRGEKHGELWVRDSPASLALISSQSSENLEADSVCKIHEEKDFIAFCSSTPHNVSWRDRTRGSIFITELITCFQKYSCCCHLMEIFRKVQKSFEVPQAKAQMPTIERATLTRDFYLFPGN
Square brackets hold non-standard residues; d marks the D form. Peptide text beside a SMILES is read from it. * marks the point of attachment. Phg = N[C@H](C(=O)O)c1ccccc1; Cbz = O=C(OCc1ccccc1)*; OtBu = CC(C)(C)O*
Hi there, I'd appreciate the recorded IC50 for every entry that follows.

State the recorded IC50 for this entry: CC(C)[C@H](NC(=O)[C@H](Cc1c[nH]c2ccccc12)NC(=O)[C@H](CC(=O)O)NC(=O)OCc1ccccc1)C(=O)N[C@H](/C=C/S(C)(=O)=O)CC(=O)O [Compound 88, Z-Asp-Trp-Val-Aspmethyl vinyl sulfone]
> 3.33 µM

Which IC50 reading was recorded for the compound CC(C)[C@H](NC(=O)[C@H](Cc1ccc(O)cc1)NC(=O)[C@H](CC(=O)O)NC(=O)OCc1ccccc1)C(=O)N[C@H](/C=C/S(C)(=O)=O)CC(=O)O [Compound 76, Z-Asp-Tyr-Val-Aspmethyl vinyl sulfone] ?
> 3.33 µM

Name the recorded IC50 for CC(C)[C@H](NC(=O)[C@H](Cc1ccccn1)NC(=O)[C@H](CC(=O)O)NC(=O)OCc1ccccc1)C(=O)N[C@H](/C=C/S(=O)(=O)c1ccccc1)CC(=O)O [Compound 85] .
> 3.33 µM

For the compound CC(C)[C@H](NC(=O)[C@H](Cc1ccc(O)cc1)NC(=O)OCc1ccccc1)C(=O)N[C@@H](C)C(=O)N[C@H](/C=C/S(=O)(=O)c1ccccc1)CC(=O)O [Compound 96, z-Tyr-Val-Ala-AspVS phenyl] , what IC50 is on record?
> 3.33 µM

Returns the measured IC50 for the input compound. Input: CC(C)[C@H](NC(=O)C(Cc1ccc2ccccc2n1)NC(=O)[C@H](CC(=O)O)NC(=O)OCc1ccccc1)C(=O)N[C@H](/C=C/S(C)(=O)=O)CC(=O)O (stereo partly shown) [Compound 71]
> 10 µM

Fill in: IC50 of CC(C)[C@H](NC(=O)[C@H](CCC(=O)O)NC(=O)[C@H](CC(=O)O)NC(=O)OCc1ccccc1)C(=O)N[C@H](/C=C/S(C)(=O)=O)CC(=O)O [Compound 59, Z-Asp-Glu-Val-Aspmethyl vinyl sulfone] is ___
> 3.33 µM

Report IC50 for CC(C)[C@H](NC(=O)[C@@H](NC(=O)[C@H](CC(=O)O)NC(=O)OCc1ccccc1)C1Cc2ccccc2C1)C(=O)N[C@H](/C=C/S(=O)(=O)C(C)C)CC(=O)O [Compound 68] please.
> 3.33 µM

Looking for the measured IC50 of CC(C)[C@H](NC(=O)[C@@H](NC(=O)[C@H](CC(=O)OC(C)(C)C)NC(=O)OCc1ccccc1)c1ccccc1)C(=O)O [Compound 16, Z-Asp(β-tert-butyl)-Phg-Val-OH] (Cbz-Asp(OtBu)-[Phg]-Val-OH) , can you help?
> 3.33 µM

Fill blank: measured IC50 of the compound CC(C)[C@H](NC(=O)[C@@H](NC(=O)[C@H](CC(=O)O)NC(=O)OCc1ccccc1)C1Cc2ccccc2C1)C(=O)N[C@H](/C=C/S(C)(=O)=O)CC(=O)O [Compound 57] is ____.
> 3.33 µM

Given COC(=O)C[C@@H](/C=C/S(C)(=O)=O)NC(=O)[C@@H](NC(=O)[C@@H](NC(=O)[C@H](CC(=O)OC)NC(=O)OCc1ccccc1)C1Cc2ccccc2C1)C(C)C [Compound 51] , state its recorded IC50.
> 3 µM

###

Answer each item with its documented IC50.
target: Caspase-7 (Homo sapiens (Human)); assay: Caspase-7 Inhibitor Drug Screening Kit, fluorometric (AFC liberation); type: biochemical; conditions: 30-minute incubation at 37° C.; approximations of the average values; read-out: Caspase enzymatic activity, IC50 (uM) Caspase 7
Sequence (P55210 whole entry): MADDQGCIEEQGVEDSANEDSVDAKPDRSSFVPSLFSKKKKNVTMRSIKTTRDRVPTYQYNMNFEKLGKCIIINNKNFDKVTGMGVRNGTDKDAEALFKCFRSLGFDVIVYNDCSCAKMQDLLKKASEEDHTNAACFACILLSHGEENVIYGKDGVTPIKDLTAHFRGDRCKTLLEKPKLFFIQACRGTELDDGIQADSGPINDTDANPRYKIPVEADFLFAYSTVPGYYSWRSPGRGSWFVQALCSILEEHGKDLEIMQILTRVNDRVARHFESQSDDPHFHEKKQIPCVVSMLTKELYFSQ
Counter-ions that a name gives are not always drawn.

Quick check: IC50 of `Cc1ccc(S(=O)(=O)N[C@@H](Cc2ccc3ccccc3n2)C(=O)N[C@H](C(=O)N[C@H](/C=C(\Cl)S(C)(=O)=O)CC(=O)O)C(C)C)cc1` ?
> 3.33 µM

Param item = CC(C)[C@H](NC(=O)C(Cc1ccc2ccccc2n1)NC(=O)[C@H](CC(=O)O)NC(=O)OCc1ccccc1)C(=O)N[C@H](/C=C/S(=O)(=O)c1ccccc1)CC(=O)O (stereo partly drawn) ; retrieve measured IC50.
> 10 µM

State the recorded IC50 for this entry: `CC(C)[C@H](NC(=O)OCc1ccccc1)C(=O)N[C@H](/C=C/S(C)(=O)=O)CC(=O)O`
> 3.33 µM

Recorded IC50 of `CC(C)[C@H](NC(=O)[C@H](Cc1ccc2ccccc2n1)NC(=O)[C@H](CC(=O)OC(C)(C)C)NC(=O)OCc1ccccc1)C(=O)N[C@H](/C=C/S(=O)(=O)N1CCOCC1)CC(=O)OC(C)(C)C` , please.
> 3.33 µM

// returns reported IC50 for input `CC(C)[C@H](NC(=O)[C@H](CCC(=O)O)NC(=O)[C@H](Cc1ccc(O)cc1)NC(=O)OCc1ccccc1)C(=O)N[C@H](/C=C/S(C)(=O)=O)CC(=O)O`
> 5 µM

Looking for the measured IC50 of `COC(=O)C[C@@H](/C=C/S(C)(=O)=O)NC(=O)[C@@H](NC(=O)[C@@H](NC(=O)[C@H](CC(=O)OC)NC(=O)OCc1ccccc1)C1Cc2ccccc2C1)C(C)C` , can you help?
> 3 µM

State the recorded IC50 for this entry: `CC(C)[C@H](NC(=O)[C@H](Cc1ccc(O)cc1)NC(=O)OCc1ccccc1)C(=O)N[C@@H](C)C(=O)N[C@H](/C=C/S(=O)(=O)c1ccccc1)CC(=O)O`
> 10 µM

Name the reported IC50 value associated with the molecule `CC(C)(C)OC(=O)C[C@@H](/C=C/S(=O)(=O)c1ccccc1)NC(=O)OC(C)(C)C`
> 3.33 µM

Please give the measured IC50 for this molecule: `COC(=O)C[C@@H](/C=C/S(C)(=O)=O)NC(=O)[C@@H](NC(=O)[C@@H](NC(=O)[C@H](CC(=O)OC)NC(=O)OCc1ccccc1)c1ccccc1)C(C)C`
> 3.33 µM

Record request: IC50 value, item `CC(C)(C)OC(=O)C[C@H](N)/C=C/S(C)(=O)=O.Cc1ccc(S(=O)(=O)O)cc1`
> 3.33 µM

Data request, read-out IC50, for CC(C)(C)OC(=O)C[C@H](N)/C=C/S(=O)(=O)c1ccccc1 [Compound 37, Asp-vinyl Phenyl Sulfone Salt Form]
> 3.33 µM

Dear colleague, I am looking for the recorded IC50 of the following molecule: `CS(=O)(=O)/C=C/[C@@H](N)CC(=O)O.Cc1ccc(S(=O)(=O)O)cc1`
> 3.33 µM

###

target: UniProtKB P42574; assay: Caspase-3 Inhibitor Drug Screening Kit, fluorometric (AFC liberation); type: biochemical; settings: 30-minute incubation at 37° C.; approximations of the average values; read-out: Caspase enzymatic activity, IC50 (uM) Caspase 3
Sequence (P42574 29-277): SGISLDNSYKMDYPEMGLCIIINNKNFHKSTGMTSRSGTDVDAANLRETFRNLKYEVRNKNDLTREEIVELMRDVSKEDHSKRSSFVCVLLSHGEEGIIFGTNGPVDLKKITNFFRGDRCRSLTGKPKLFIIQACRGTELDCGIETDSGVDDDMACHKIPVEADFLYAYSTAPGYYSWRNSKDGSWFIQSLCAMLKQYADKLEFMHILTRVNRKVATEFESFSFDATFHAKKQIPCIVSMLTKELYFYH
Counter-ions that a name gives are not always drawn.
I'd appreciate it if you could supply IC50 values for the items below.

Record request: IC50 value, item CC(C)(C)OC(=O)C[C@H](N)/C=C/S(=O)(=O)c1ccccc1 [Compound 37, Asp-vinyl Phenyl Sulfone Salt Form]
> 2 µM

What value of measured IC50 is listed for `CC(C)(C)OC(=O)C[C@H](N)/C=C/S(C)(=O)=O.Cc1ccc(S(=O)(=O)O)cc1` ?
> 10 µM

# query: IC50 of entry `CS(=O)(=O)/C=C/[C@@H](N)CC(=O)O.Cc1ccc(S(=O)(=O)O)cc1`
> 10 µM

Fill in: IC50 of `Cc1ccc(S(=O)(=O)N[C@@H](Cc2ccc3ccccc3n2)C(=O)N[C@H](C(=O)N[C@H](/C=C(\Cl)S(C)(=O)=O)CC(=O)O)C(C)C)cc1` is ___
> 3.33 µM

Quick one: IC50 of `CC(C)[C@H](NC(=O)OCc1ccccc1)C(=O)N[C@H](/C=C/S(C)(=O)=O)CC(=O)O` ?
> 3.33 µM

Please look up its IC50: `COC(=O)C[C@@H](/C=C/S(C)(=O)=O)NC(=O)[C@@H](NC(=O)[C@@H](NC(=O)[C@H](CC(=O)OC)NC(=O)OCc1ccccc1)c1ccccc1)C(C)C`
> 3.33 µM
